# System: iBMDM (immortalised mouse bone-marrow-derived macrophages), LPS-stimulated
# ASSAY NAME: mitochondrial superoxide (MitoSOX fluorescence) fold increase over unstimulated control; higher = more LPS-induced mitochondrial ROS (less inhibition)
# CONDITION SUMMARY: inhibitor concentration: 500 nM; LPS: 100 ng/ml; time after LPS: 2 h
Measured mitochondrial superoxide values are reported for all entries that follow.
MEASUREMENT LABEL: mitochondrial superoxide

COMPOUND STRING | READOUT VALUE
O=C(O)[C@]1(Cc2cccc(Nc3nccs3)n2)CC[C@@H](Oc2cccc(Cl)c2F)CC1 | 1.39
COc1cc2ncnc(Oc3cccc(NC(=O)Nc4cc(C(C)(C)C(F)(F)F)on4)c3)c2cc1OC | 1.56
CC(C)(C)n1nc(-c2ccc(Cl)cc2)c2c(N)ncnc21 | 1.23
